- System: Plasmodium berghei ANKA liver stage in HepG2-A16-CD81
- assay.method.text: % inhibition of liver stage parasite viability (luciferase); higher = more inhibition
- settings: 5 µM; 48 h
reported.endpoint: % inhibition of liver stage parasite viability (%)

query_smiles=O=C(CCc1ccc2c(c1)OCO2)NCc1ccc(-c2ccccc2F)cc1 unit_annotation=% data_value=43.9
query_smiles=CCOc1noc2cc(OCCC3CCN(c4ccc(C)nn4)CC3)ccc12 unit_annotation=% data_value=27.3
query_smiles=CCCCCc1ccc(C(=O)NCCn2cc(CCCCCc3cnc(N)[nH]3)nn2)cc1 unit_annotation=% data_value=37.7
query_smiles=N[C@@H]1CN(c2c(F)cc3c(=O)c(C(=O)O)cn([C@@H]4C[C@@H]4F)c3c2Cl)CC12CC2 unit_annotation=% data_value=-19.2

----------
- Tested on: Plasmodium falciparum NF54 stage IV/V gametocytes
- assay.method.text: % inhibition of gametocyte viability (ATP bioluminescence); higher = more inhibition
- settings: 1 µM; 24 h
reported.endpoint: % inhibition of gametocyte viability

compound=Cc1c(N)cccc1Cn1ccc(OCCc2cccs2)cc1=O data_value=0.516%
compound=NS(=O)(=O)c1ccc(NC(=O)NC(c2ccccc2)c2ccccc2)cc1 data_value="< 0%"
compound=CNc1nc(=O)[nH]cc1F data_value="< 0%"
compound=O=c1nc(N2CCN(CC3CCCCC3)CC2)sc2c([N+](=O)[O-])cc(C(F)(F)F)cc12 data_value="< 0%"
compound=NC(=O)C(c1ccccc1)(c1ccccc1)[C@H]1CCCN(CCc2ccc3c(c2)CCO3)C1 data_value="< 0%"
compound=NC(=O)c1c(N)sc2c1CCCCC2 data_value="< 0%"
compound="O=C1CCC(N2C(=O)c3ccccc3C2=O)C(=O)N1 (stereo unspecified)" data_value="< 0%"
compound=O=C(NCc1ccc2c3c(cccc13)C(=O)N2)c1cccs1 data_value="< 0%"
compound=CS(=O)(=O)c1ccc(Oc2ccc(Cl)cc2)cc1 data_value="< 0%"
compound=CN(C)CCNC(=O)c1cccc2cccnc12 data_value="< 0%"
compound=N[C@@H]1CN(c2c(F)cc3c(=O)c(C(=O)O)cn([C@@H]4C[C@@H]4F)c3c2Cl)CC12CC2 data_value="< 0%"
compound="CCN(CC)CCCC(C)Nc1ccnc2cc(Cl)ccc12 (stereo unspecified)" data_value="< 0%"
compound=O=c1cc(OCc2ccccc2)ccn1Cc1ccccc1 data_value="< 0%"
compound=CCCCCCCc1[nH]c2ccccc2c(=O)c1O data_value="< 0%"
compound="Cc1nc(Nc2ccc(F)cc2)nc(N2CCc3ccccc3C2C)c1C (stereo unspecified)" data_value="< 0%"
compound=Cc1onc(-c2ccccc2)c1-c1ccc(S(N)(=O)=O)cc1 data_value=1.41%

----------
- Tested on: Plasmodium falciparum NF54 stage IV/V gametocytes
- assay.method.text: % inhibition of gametocyte viability (luciferase reporter); higher = more inhibition
- settings: 5 µM; 48 h
Measured % inhibition of gametocyte viability, listed per entry for reference.
reported.endpoint: % inhibition of gametocyte viability

query_smiles=COc1ccc(CNC(=O)C2CCN([C@H](C)c3cccc4ccccc34)CC2)cc1 data_value="< 0%"
query_smiles=NC[C@H]1O[C@H](O[C@H]2[C@H](O)[C@@H](O[C@H]3O[C@H](CO)[C@@H](O)[C@H](N)[C@H]3O)[C@H](N)C[C@@H]2N)[C@H](N)C[C@@H]1O data_value=6.32%
query_smiles=C[Si]1(C)CCN(Cc2cc(-c3ccc(Cl)cc3)n(-c3ccc(Cl)cc3)n2)CC1 data_value=31.2%
query_smiles=N[C@H]1CCC[C@H]1C(=O)O data_value="< 0%"
query_smiles=Nc1nc2c(Cc3cccnc3)c[nH]c2c(=O)[nH]1 data_value="< 0%"
query_smiles=O=C(NCc1cccc2ccccc12)c1cccs1 data_value="< 0%"
query_smiles=O=C(Nc1nnc(-c2ccc(Cl)cc2)o1)c1ccc(F)cc1 data_value=1.27%
query_smiles=COc1ccc(C(C)(C)C)cc1NC(=O)C(=O)c1ccc(OCCN2CCOCC2)c2ccccc12 data_value="< 0%"
